- Tested on: HeLa MZ
- assay method text: filipin (cholesterol) integrated intensity within LBPA endosomes, Z-score; higher = more cholesterol in LBPA endosomes
- test context: compound concentration in added solution (µM; 5 µl added to 20 µl cells): 10; 18 h
Counter-ions that a name gives are not always drawn.
reported property: filipin (z-score)
Please reply with the number alone, leaving off any unit.

For orientation, consider the following solved cases.
Cc1cc(-n2c(=O)[nH]c(=O)n(C)c2=O)ccc1Oc1ccc(SC(F)(F)F)cc1; -0.457
CCOC(=O)C1=C(C)NC(C)=C(C(=O)OCC)C1c1ccccc1/C=C/C(=O)OC(C)(C)C; 0.927
O=C(O)c1cccnc1; -0.617

Now for another entry.
Incoming: // filipin (z-score) lookup, key: COc1cc2nc(N(C)CCCNC(=O)C3CCCO3)nc(N)c2cc1OC (centres undefined) [Alfuzosin hydrochloride]
Outgoing: 0.128

###

- Test system: HeLa MZ
- assay method text: LBPA endosome anti-LBPA integrated intensity (sum per cell), Z-score; higher = more LBPA staining
- test context: compound concentration in added solution (µM; 5 µl added to 20 µl cells): 10; 18 h
Structures can show the parent of a compound that is named as a salt.
Where LBPA endosome anti-LBPA integrated intensity (z-score) equals or exceeds 1, the correct label is Fulfilled; where it does not, the label is Not fulfilled.

Sample answers from the record:
CC(COc1ccccc1)N(CCCl)Cc1ccccc1 (stereo not given) [Phenoxybenzamine hydrochloride]; Not fulfilled
CN(C)CCN(Cc1ccccc1)c1ccccn1 [Tripelennamine hydrochloride]; Fulfilled
CCN(CC)C(C)CN1c2ccccc2Sc2ccccc21 (stereo not given) [Ethopropazine hydrochloride]; Fulfilled
COc1ccc(C(=O)c2ccccc2)c(O)c1 [Oxybenzone]; Not fulfilled
CN1CCN(c2c(F)cc3c(=O)c(C(=O)O)cn4c3c2SCC4)CC1 [Rufloxacin]; Not fulfilled

Incoming: Decide: is the reported value of LBPA endosome anti-LBPA integrated intensity (z-score) for Cc1cccc(N(C)C(=S)Oc2ccc3ccccc3c2)c1 [Tolnaftate] equal to or greater than 1?
Outgoing: Not fulfilled

Incoming: Same read-out for Clc1ccc(COC(Cn2ccnc2)c2ccc(Cl)cc2Cl)cc1 (stereo not given) [Econazole nitrate] ?
Outgoing: Fulfilled

Incoming: Check CCCC(=O)Nc1ccc(OCC(O)CNC(C)C)c(C(C)=O)c1 (stereo not given) [Acebutolol hydrochloride] too.
Outgoing: Not fulfilled

Incoming: Same lookup for Clc1ccc(COC(Cn2ccnc2)c2ccc(Cl)cc2Cl)c(Cl)c1 (stereo not given) [Miconazole] , please.
Outgoing: Fulfilled

Incoming: Continue with CCOc1cc(CC(=O)N[C@@H](CC(C)C)c2ccccc2N2CCCCC2)ccc1C(=O)O [Repaglinide]
Outgoing: Not fulfilled

###

- Tested on: HeLa MZ
- assay method text: LBPA endosome anti-LBPA integrated intensity (sum per cell), Z-score; higher = more LBPA staining
- test context: compound concentration in added solution (µM; 5 µl added to 20 µl cells): 10; 18 h
Counter-ions that a name gives are not always drawn.
Values of LBPA endosome anti-LBPA integrated intensity (z-score) greater than or equal to -0.2 map to T; values below map to F.

Would you please look over these solved cases?
CC(=O)NS(=O)(=O)c1ccc(N)cc1 [Sulfacetamide sodic hydrate]; F
CN1CCCN=C1/C=C/c1cccs1 [Pyrantel tartrate]; T

Incoming: Would you say O=C(O)c1ccccc1Nc1cccc(C(F)(F)F)c1 shows LBPA endosome anti-LBPA integrated intensity (z-score) at minimum -0.2?
Outgoing: F

Incoming: Same question, CC(C)(C)NC[C@H](O)COc1cccc2c1CCCC2=O [(-) -Levobunolol hydrochloride] this time
Outgoing: T

Incoming: Next compound: O=C(CCCN1CCC(O)(c2ccc(Br)cc2)CC1)c1ccc(F)cc1
Outgoing: T

Incoming: Likewise for CC(=O)OCC(=O)[C@@]1(OC(C)=O)[C@@H](C)C[C@H]2[C@@H]3C[C@H](F)C4=CC(=O)C=C[C@]4(C)[C@@]3(F)[C@@H](O)C[C@@]21C [Diflorasone Diacetate] ?
Outgoing: F

Incoming: And what about the compound CNCCC=C1c2ccccc2CCc2ccccc21 [Nortriptyline hydrochloride] ?
Outgoing: T

###

- Test system: HeLa MZ
- assay method text: LBPA endosome anti-LBPA integrated intensity (sum per cell), Z-score; higher = more LBPA staining
- test context: compound concentration in added solution (µM; 5 µl added to 20 µl cells): 10; 18 h
Where a name gives a salt, the structure may show the parent alone.
Tag: met if measured LBPA endosome anti-LBPA integrated intensity (z-score) is not below 0.2, not met if it is.

CC(=O)O[C@H]1C[C@@H]2CC[C@@H]3[C@H](CC[C@@]4(C)[C@H]3C[C@H]([N+]3(C)CCCCC3)[C@@H]4OC(C)=O)[C@@]2(C)C[C@@H]1N1CCCCC1 [Vecuronium bromide]; not met
CCOC(=O)C1=C(COCCN)NC(C)=C(C(=O)OC)C1c1ccccc1Cl (centres undefined); met

Incoming: Check this molecule for LBPA endosome anti-LBPA integrated intensity (z-score) at or above 0.2: Cc1onc(-c2ccccc2)c1C(=O)N[C@@H]1C(=O)N2[C@@H]1SC(C)(C)[C@@H]2C(=O)O [Oxacillin sodium]
Outgoing: met

Incoming: Then what about the molecule CC(=O)[C@@]1(O)CC[C@H]2[C@@H]3C[C@H](C)C4=CC(=O)C=C[C@]4(C)[C@@]3(F)[C@@H](O)C[C@@]21C ?
Outgoing: not met

Incoming: CN1C(=O)CC(c2ccccc2)C1=O (centres undefined) [Phensuximide] ?
Outgoing: not met

Incoming: Okay, and CCOc1nc2cccc(C(=O)O)c2n1Cc1ccc(-c2ccccc2-c2nnn[nH]2)cc1 ?
Outgoing: met

Incoming: Let us now turn to Cc1cc(C(C)(C)C)cc(C)c1CC1=NCCN1 [Xylometazoline hydrochloride]
Outgoing: met

Incoming: What about this molecule? CC(N)C12CC3CC(CC(C3)C1)C2 (centres undefined) [Rimantadine Hydrochloride]
Outgoing: not met

Incoming: Now consider CC[C@H]1OC(=O)[C@H](C)[C@@H](O[C@H]2C[C@@](C)(OC)[C@@H](O)[C@H](C)O2)[C@H](C)[C@@H](O[C@@H]2O[C@H](C)C[C@H](N(C)C)[C@H]2O)[C@](C)(O)C[C@@H](C)CN(C)[C@H](C)[C@@H](O)[C@]1(C)O .
Outgoing: met

###

- System: HeLa MZ
- assay method text: LBPA endosome anti-LBPA integrated intensity (sum per cell), Z-score; higher = more LBPA staining
- test context: compound concentration in added solution (µM; 5 µl added to 20 µl cells): 10; 18 h
Counter-ions that a name gives are not always drawn.
reported property: LBPA endosome anti-LBPA integrated intensity (z-score)
# answer = number (no unit)

These recorded examples may help you get a feel for the data.
CC(=O)OCC(=O)[C@@]1(O)[C@H](C)C[C@H]2[C@@H]3CCC4=CC(=O)C=C[C@]4(C)[C@@]3(F)[C@@H](O)C[C@@]21C [Dexamethasone acetate]; -0.245
Oc1ncnc2[nH]ncc12; 0.486

Incoming: Given the compound CN[C@H]1CC[C@@H](c2ccc(Cl)c(Cl)c2)c2ccccc21 , what is its reported LBPA endosome anti-LBPA integrated intensity (z-score)?
Outgoing: -0.719

Incoming: And then N/C(=N\C(=O)c1nc(Cl)c(N)nc1N)NCc1ccccc1 [Benzamil hydrochloride] , what is it?
Outgoing: 1.13

Incoming: Also CC[N+](CC)(CC(=O)Nc1c(C)cccc1C)Cc1ccccc1 [Denatonium benzoate] ?
Outgoing: -0.985

###

- System: HeLa MZ
- assay method text: whole-cell filipin (free cholesterol) integrated intensity, Z-score; higher = more cholesterol staining
- test context: compound concentration in added solution (µM; 5 µl added to 20 µl cells): 10; 18 h
Counter-ions that a name gives are not always drawn.
Below, each of the compounds is paired with its reported whole-cell filipin (z-score) value.
Write the value as a bare number.

For orientation, consider the following solved cases.
C[C@]12C=CC(=O)C=C1CC[C@@H]1[C@@H]2[C@@H](O)C[C@@]2(C)[C@H]1CC[C@]2(O)C(=O)CO; -0.403
CC(Oc1c(Cl)cccc1Cl)C1=NCCN1 (stereo not given); -0.717
CNCCC=C1c2ccccc2CCc2ccccc21 [Nortriptyline hydrochloride]; 1.82
COc1nc(C)nc(Cl)c1NC1=NCCN1; -0.203

// below: whole-cell filipin (z-score) requested for another compound
Incoming: Query: whole-cell filipin (z-score); subject: CN(C)CCC(c1ccc(Br)cc1)c1ccccn1 (stereo not given) [Brompheniramine maleate]
Outgoing: -0.596

###

- System: HeLa MZ
- assay method text: LBPA endosome anti-LBPA integrated intensity (sum per cell), Z-score; higher = more LBPA staining
- test context: compound concentration in added solution (µM; 5 µl added to 20 µl cells): 10; 18 h
Structures can show the parent of a compound that is named as a salt.
reported property: LBPA endosome anti-LBPA integrated intensity (z-score)

Consider the reported LBPA endosome anti-LBPA integrated intensity (z-score) for these molecules:
Cc1ccc(/C(=C\CN2CCCC2)c2ccccn2)cc1 [Triprolidine hydrochloride]; 0.494
CNCCCC1c2ccccc2C=Cc2ccccc21 [Protriptyline hydrochloride]; 2.29
CN(C)CCCOc1nn(Cc2ccccc2)c2ccccc12 [Benzydamine hydrochloride]; 2.25
CC(C)n1c(/C=C/C(O)CC(O)CC(=O)O)c(-c2ccc(F)cc2)c2ccccc21 (centres undefined) [Fluvastatin sodium salt]; -1.11
OC(CCCN1CCCCC1)(c1ccccc1)c1ccccc1 [Diphenidol hydrochloride]; 0.517

Incoming: What does the record list as LBPA endosome anti-LBPA integrated intensity (z-score) for Oc1c(Cl)cc(Cl)c2cccnc12 ?
Outgoing: -1.58

Source listed as the supplement of paper PMC6607015.
